# System: melanoma cancer cell line M14
# TEST: NCI in vitro cytotoxicity, SRB assay
# Assay type: cell-based, human
# CONDITION: read-out: potency at the LC50 level
MEASURED ATTRIBUTE: LC50

Ask: Notebook: pull reported LC50 for melanoma cancer cell line M14, entry COc1cc2c(cc1OCCCNC(=O)c1cccc3c(=O)c4ccccc4[nH]c13)N=C[C@@H]1CCCN1C2=O [Compound IV]
Reply: > 10 µM

###

# System: CNS cancer (SNB-75)
# TEST: NCI in vitro cytotoxicity, SRB assay
# Assay type: cell-based, human
# CONDITION: SNB-75 CNS; read-out: potency at the LC50 level
MEASURED ATTRIBUTE: LC50 (concentration causing 50% cell death)
Answer format: number, then unit.

Ask: What value of measured LC50 (concentration causing 50% cell death) is listed for "COc1cc2c(cc1OCCCNC(=O)c1cccc3c(=O)c4ccccc4[nH]c13)N=C[C@@H]1CCCN1C2=O" ?
Reply: 100 nM

###

# Tested on: melanoma cancer cell line LOXIMVI
# TEST: NCI in vitro cytotoxicity, SRB assay
# Assay type: cell-based, human
# CONDITION: read-out: potency at the LC50 level
MEASURED ATTRIBUTE: CC50

Ask: Dear colleague, I am looking for the recorded CC50 of the following compound: COc1cc2c(cc1OCCCNC(=O)c1cccc3c(=O)c4ccccc4[nH]c13)N=C[C@@H]1CCCN1C2=O [Compound IV]
Reply: > 10 µM

###

# System: colon cancer (HCC-2998)
# TEST: NCI in vitro cytotoxicity, SRB assay
# Assay type: cell-based, human
# CONDITION: HCC-2998 colon; read-out: potency at the LC50 level
MEASURED ATTRIBUTE: LC50 (concentration killing 50% of cells) (nM)
Give bare numbers, in nM.

Ask: Value lookup for LC50 (concentration killing 50% of cells); key = "COc1cc2c(cc1OCCCNC(=O)c1cccc3c(=O)c4ccccc4[nH]c13)N=C[C@@H]1CCCN1C2=O"
Reply: 100
